- study conditions: 298.15 K; 101.33 kPa; Liquid
What mass density was measured for each of the following?
Express your answer in kg/m3, writing the number without its unit.

Data point: CCCCCCCCC=O ; mass density = 831.04

Data point: CCCCCC=O ; mass density = 833.12

Data point: CCCCCCCC=O ; mass density = 821.07

Data point: CCO ; mass density = 785.08

Data point: CCCCCCCCCC=O ; mass density = 801.24

----------
- study conditions: 298.15 K; 101.33 kPa; Liquid
measured quantity: viscosity (mPa·s)
Express your answer in mPa·s, writing the number without its unit.

Data point: CCCCCC=O ; viscosity = 0.805

Data point: CCO ; viscosity = 1.088

Data point: CCCCCCCCCC=O ; viscosity = 1.56

Data point: CCCCCCCC=O ; viscosity = 1.2

Data point: CCCCCCCCC=O ; viscosity = 1.392

----------
- study conditions: 308.15 K; 101.33 kPa; Liquid
measured quantity: mass density (kg/m3)
Express your answer in kg/m3, writing the number without its unit.

Data point: CCCCCCCCC=O ; mass density = 818.01

Data point: CCCCCC=O ; mass density = 818.94

Data point: CCCCCCCCCC=O ; mass density = 789.05

Data point: CCCCCCCC=O ; mass density = 807.34

Data point: CCO ; mass density = 778.09

----------
- study conditions: 308.15 K; 101.33 kPa; Liquid
measured quantity: viscosity (mPa·s)
Express your answer in mPa·s, writing the number without its unit.

Data point: CCCCCCCCC=O [nonanal] ; viscosity = 1.251

Data point: CCO [ethanol] ; viscosity = 0.897

Data point: CCCCCC=O [hexanal] ; viscosity = 0.716

Data point: CCCCCCCC=O [octanal] ; viscosity = 1.074

Data point: CCCCCCCCCC=O [decanal] ; viscosity = 1.412

----------
- study conditions: 318.15 K; 101.33 kPa; Liquid
measured quantity: mass density (kg/m3)
Express your answer in kg/m3, writing the number without its unit.

Data point: CCO [ethanol] ; mass density = 763.91

Data point: CCCCCC=O [hexanal] ; mass density = 804.31

Data point: CCCCCCCCCC=O [decanal] ; mass density = 776.18

Data point: CCCCCCCCC=O [nonanal] ; mass density = 804.72

Data point: CCCCCCCC=O [octanal] ; mass density = 793.85

----------
What viscosity was measured for each of the following?
- study conditions: 318.15 K; 101.33 kPa; Liquid
± gives the expanded uncertainty stated by the source.
Answer with the figure and its unit, nothing else.

Data point: CCCCCC=O [hexanal] ; viscosity = 0.639 ± 0.02 mPa·s

Data point: CCCCCCCC=O [octanal] ; viscosity = 0.965 ± 0.03 mPa·s

Data point: CCCCCCCCCC=O [decanal] ; viscosity = 1.281 ± 0.04 mPa·s

Data point: CCCCCCCCC=O [nonanal] ; viscosity = 1.127 ± 0.035 mPa·s

Data point: CCO [ethanol] ; viscosity = 0.767 ± 0.024 mPa·s
